Source: patent US6914045B2

- Tested on: Streptococcus sp.
- PROTOCOL DESCRIPTION: in vitro antibacterial evaluation, MIC by broth dilution
- Type: cell-based
- CONDITION DESCRIPTION: Streptococcus pneumoniae (GC 4565); broth dilution, 18 hours at 35° C.
PARAMETER MEASURED: MIC Streptococcus pneumoniae (GC 4565)

1) COC1CCC2(C)C(CCC3C2CCC2(C)C(C(C)CCC4OCC5OC(OC6C(CO)OC(Oc7ccc(CC8NC(=O)C(C(C)c9ccccc9)NC(=O)CNC(=O)C(CO)NC(=O)C(C(O)C9CNC(=N)N9C9OC(CO)C(O)C(O)C9O)NC(=O)C(C(O)C9CNC(=N)N9)NC8=O)cc7)C(O)C6O)C(O)C(O)C5O4)CCC32)C1 (stereo not shown)	4 µg/mL
2) N=C1NCC(C(O)C2NC(=O)C(Cc3ccc(OC4OC(CO)C(OC5OC6COC7(OC6C6OC8(OC56)C5CC6CC(C5)CC8C6)C5CC6CC(C5)CC7C6)C(O)C4O)cc3)NC(=O)C(CC3CCCCC3)NC(=O)CNC(=O)C(CO)NC(=O)C(C(O)C3CNC(=N)N3C3OC(CO)C(O)C(O)C3O)NC2=O)N1 (stereo not shown) [Example 106b]	0.5 µg/mL
3) Cc1cc(C2OCC3OC(OC4C(CO)OC(Oc5ccc(CC6NC(=O)C(C(C)c7ccccc7)NC(=O)CNC(=O)C(CO)NC(=O)C(C(O)C7CNC(=N)N7C7OC(CO)C(O)C(O)C7O)NC(=O)C(C(O)C7CNC(=N)N7)NC6=O)cc5)C(O)C4O)C(O)C(O)C3O2)ccc1[N+](=O)[O-] (stereo not shown)	1 µg/mL

Read the next record carefully.
Entry CC(C)=CCCC(C)C1OCC2OC(OC3C(CO)OC(Oc4ccc(CC5NC(=O)C(C(C)c6ccccc6)NC(=O)CNC(=O)C(CO)NC(=O)C(C(O)C6CNC(=N)N6C6OC(CO)C(O)C(O)C6O)NC(=O)C(C(O)C6CNC(=N)N6)NC5=O)cc4)C(O)C3O)C(O)C(O)C2O1 (stereo not shown) , MIC Streptococcus pneumoniae (GC 4565) reported as 0.25 µg/mL
